From: the supplement of paper PMC4466140

# TESTED_SYSTEM: AgNbp2
# ASSAY_NOTES: SPOT peptide array binding signal intensity (averaged, normalized) (arbitrary units (background-subtracted, floor 0; scale differs between SH3 domains)); higher = stronger binding of the SH3 domain to the peptide
Consider the following binders; for each one, report its SPOT peptide array binding signal intensity.
Answer with a number only.

*Q* Using the record for `RRSKSLPITPKSIFN` , state its measured SPOT peptide array binding signal intensity.
*A* 27

*Q* Please give measured SPOT peptide array binding signal intensity of the following entry: `RRGPAPPPPPRASRP`
*A* 205

*Q* Quick one: give measured SPOT peptide array binding signal intensity for `NSMRPPLLIPAATTK`
*A* 114

*Q* Report SPOT peptide array binding signal intensity, nothing else, for this binder: `QQNRPLPQLPNRNNR`
*A* 0.5

*Q* Please look at this binder and report its SPOT peptide array binding signal intensity: `GKKVRPLLVLLLSRA`
*A* 280

*Q* Dear colleague, please send me the reported SPOT peptide array binding signal intensity for `RKRAPTPPAPSRSEK` when you can.
*A* 1300
